- Test Method Notes: Half life in human
- Format: ADME
Measured Quantity: half-life

For C[C@H]1Oc2cc(cnc2N)-c2c(nn(C)c2C#N)CN(C)C(=O)c2ccc(F)cc21 the compound record lists half-life as ~25 h

---

- Test Method Notes: Oral bioavailability in human
- Assay type: ADME, organism-based
- Setup Conditions: in vivo
Measured Quantity: bioavailability (%)
Number in %, nothing else.

For C[C@H]1Oc2cc(cnc2N)-c2c(nn(C)c2C#N)CN(C)C(=O)c2ccc(F)cc21 the molecule record lists bioavailability as 81
